Where do these numbers come from? They come from patent US12319655B2.

assayed-target: A-Raf kinase (SEQ. ID No: 1) (Homo sapiens (Human), UniProt P10398, Y301D/Y302D)
Sequence (P10398 other isoform, or with tags, fused parts or gaps Y301D (already in the parent)/Y302D (already in the parent)): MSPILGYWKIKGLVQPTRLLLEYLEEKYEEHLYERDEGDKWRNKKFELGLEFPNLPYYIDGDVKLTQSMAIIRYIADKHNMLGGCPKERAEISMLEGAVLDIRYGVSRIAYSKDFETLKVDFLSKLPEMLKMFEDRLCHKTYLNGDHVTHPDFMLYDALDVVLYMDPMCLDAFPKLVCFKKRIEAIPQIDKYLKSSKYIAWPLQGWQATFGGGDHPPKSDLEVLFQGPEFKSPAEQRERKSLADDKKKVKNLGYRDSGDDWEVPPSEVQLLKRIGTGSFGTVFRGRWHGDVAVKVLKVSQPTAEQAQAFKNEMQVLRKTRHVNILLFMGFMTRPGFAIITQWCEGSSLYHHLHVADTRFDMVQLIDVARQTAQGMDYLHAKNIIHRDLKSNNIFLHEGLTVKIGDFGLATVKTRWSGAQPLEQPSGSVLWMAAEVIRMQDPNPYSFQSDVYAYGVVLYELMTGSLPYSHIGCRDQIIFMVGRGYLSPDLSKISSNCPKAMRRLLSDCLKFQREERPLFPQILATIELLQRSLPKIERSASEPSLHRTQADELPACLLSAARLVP
assay-text: Biochemical Assay for A-Raf (1)
condition-label: Table J, assay version (1); read-out: ARAF (1) IC50
Method: Biochemical Assay for A-Raf (1) Activity of A-Raf kinase (SEQ. ID No: 1) was determined spectroscopically using a coupled pyruvate kinase/lactate dehydrogenase assay that continuously monitors the ATP hydrolysis-dependent oxidation of NADH (e.g., Schindler et al., Science, 2000, 289, 1938-1942). […] Inhibition of A-Raf was measured by adding serial diluted test compound (final assay concentration of 1% DMSO). […] The reaction rate was calculated using the 4 to 5 h time frame. […]
pIC50: −log10 of the molar value.
quantity-kind: pIC50

Record Cc1ncc(NC(=O)c2cncc(C(F)F)c2)cc1-c1cccc(-c2cc(NC(=O)C3CC3)ncn2)c1 [Example 280] has A-Raf kinase (SEQ. ID No: 1) (Homo sapiens (Human), UniProt P10398, Y301D/Y302D) pIC50 equal to 5.00 to 6.00

Record Cc1ccc(NC(=O)c2ccnc(C(C)(C)C#N)c2)cc1-c1cc(-c2ccnc(C(=O)NC3CC3)c2)cnn1 [Example 372] has A-Raf kinase (SEQ. ID No: 1) (Homo sapiens (Human), UniProt P10398, Y301D/Y302D) pIC50 equal to 5.00 to 6.00

Record COC(=O)Nc1cc(-c2cc(-c3cc(NC(=O)c4ccnc(C(C)(C)C#N)c4)c(F)cc3C)ccn2)ccn1 [Example 308] has A-Raf kinase (SEQ. ID No: 1) (Homo sapiens (Human), UniProt P10398, Y301D/Y302D) pIC50 equal to 5.00 to 6.00

Record Cc1ccc(NC(=O)c2ccnc(C(C)(C)C#N)c2)cc1-c1ccnc(-c2ccnc(NC(=O)C3CC3)c2)n1 [Example 257] has A-Raf kinase (SEQ. ID No: 1) (Homo sapiens (Human), UniProt P10398, Y301D/Y302D) pIC50 equal to 6.00 to 6.30
